Cited source: paper PMC9239047

- Tgt: MRSA agr-IV (Staphylococcus aureus)
- Sequence (Q309Z2 entry or part of it): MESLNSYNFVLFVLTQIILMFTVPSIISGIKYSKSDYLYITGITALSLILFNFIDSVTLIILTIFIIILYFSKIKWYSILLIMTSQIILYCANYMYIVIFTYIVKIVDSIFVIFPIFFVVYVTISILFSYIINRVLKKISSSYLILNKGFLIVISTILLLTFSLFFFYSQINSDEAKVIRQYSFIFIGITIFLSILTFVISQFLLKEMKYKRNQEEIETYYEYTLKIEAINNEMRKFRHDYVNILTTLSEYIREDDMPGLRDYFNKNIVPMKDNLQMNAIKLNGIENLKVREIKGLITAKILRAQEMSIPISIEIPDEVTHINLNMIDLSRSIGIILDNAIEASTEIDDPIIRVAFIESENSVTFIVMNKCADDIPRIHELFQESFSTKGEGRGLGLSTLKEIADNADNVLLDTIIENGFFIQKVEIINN
- Test Protocol: MRSA agr-IV P3::YFP fluorescent reporter assay
- Format: cell-based
- Condition Description: synthetic AIP dose response, 24 h fluorescence
Positions of bridges follow the written chain, without caps; N, C: chain ends. Residues, ends and D or L forms follow the SMILES beside them.
Experimental Readout: inhibition of MRSA agr-IV by synthetic AIP (in words)

C[C@@H]1NC(=O)[C@@H](NC(=O)[C@@H]2CCCN2C(=O)[C@H](CO)NC(=O)[C@H](Cc2ccc(O)cc2)NC(=O)[C@@H](N)CO)CSC(=O)[C@H](Cc2ccccc2)NC(=O)[C@H](Cc2ccc(O)cc2)NC(=O)[C@H]([C@@H](C)O)NC1=O [AIP-II] (H-SYSPCATYF; thioester 5-C; N-terminus assumed) | poorly inhibited
CC(C)[C@H](NC(=O)[C@H](CC(N)=O)NC(=O)[C@H](Cc1ccc(O)cc1)NC(=O)[C@@H](N)CO)C(=O)N[C@H]1CSC(=O)[C@H](Cc2ccccc2)NC(=O)[C@H](Cc2ccc(O)cc2)NC(=O)CNC(=O)CNC1=O [AIP-I] (H-SYNVCGGYF; thioester 5-C) | poorly inhibited
CC(C)[C@H](NC(=O)[C@@H](NC(=O)[C@H](CCC(N)=O)NC(=O)[C@@H](N)CO)[C@@H](C)O)C(=O)N[C@H]1CSC(=O)[C@H](Cc2ccccc2)NC(=O)[C@H](Cc2ccc(O)cc2)NC(=O)CNC(=O)[C@H](CO)NC1=O [AIP-V] (H-SQTVCSGYF; thioester 5-C; N-terminus assumed) | poorly inhibited
